- Target or test system: Meditope enabled Ocaratuzumab
- Sequence (chain, as listed by the source, chain 1 of 2): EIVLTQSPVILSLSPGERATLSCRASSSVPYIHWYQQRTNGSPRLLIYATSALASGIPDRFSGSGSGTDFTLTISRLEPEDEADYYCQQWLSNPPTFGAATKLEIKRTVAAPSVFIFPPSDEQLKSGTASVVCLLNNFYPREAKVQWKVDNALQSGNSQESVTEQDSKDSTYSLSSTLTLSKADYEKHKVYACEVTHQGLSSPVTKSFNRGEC
- Sequence (chain, as listed by the source, chain 2 of 2): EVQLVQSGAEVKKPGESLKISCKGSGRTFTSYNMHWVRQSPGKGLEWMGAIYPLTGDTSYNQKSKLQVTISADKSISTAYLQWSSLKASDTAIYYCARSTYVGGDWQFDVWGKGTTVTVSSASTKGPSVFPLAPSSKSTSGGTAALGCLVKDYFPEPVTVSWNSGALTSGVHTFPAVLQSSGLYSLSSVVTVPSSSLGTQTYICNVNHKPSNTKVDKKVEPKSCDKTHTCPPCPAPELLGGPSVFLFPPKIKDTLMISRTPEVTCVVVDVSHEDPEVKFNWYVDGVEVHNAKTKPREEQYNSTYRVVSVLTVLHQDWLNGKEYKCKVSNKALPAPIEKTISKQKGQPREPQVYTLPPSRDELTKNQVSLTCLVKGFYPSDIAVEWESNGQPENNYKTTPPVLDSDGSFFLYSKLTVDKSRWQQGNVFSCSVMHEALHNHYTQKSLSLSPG
- Assay details: BLI Octet, antibody on anti-human Fc tip, peptide 37 nM
pKd: −log10 of the molar value.

# Binder, pKd
data = [
    ("CQFDLSTRRLRC (modifications not checked) [Peptide 22: DM1 conjugated cQFD (cQFD-DM1)]", "> 12.00"),
]

The measured values listed here are drawn from patent US20190111149A1.
